meta.source: the supplement of paper PMC9732359

Assay: protein stability index of a GFP-peptide fusion (yeast GPS) (PSI 1-4); higher = more stable; sorted into four equal gates, so the index is relative within each strain
Details: pdr5∆
Readings of protein stability index for the listed sequences
API note: the answer field is a bare number with no unit suffix.

Record excerpt, results attached:
seq="SNGGGKVKPIRGFCQRL [RPO31]" obs_value=3.12
seq="NFLVFQGDVEQIAAQSP [SMC1]" obs_value=2.51

Exam item: State the recorded protein stability index for this entry: VTRTQQWSMVAQRLQIS [SWI1]
Marked response: 1.89

Exam item: Same question for TGNNNNIATQQNMQQSL [GAL11] please.
Marked response: 2.49

Exam item: Entry to check: MSDSIISFAAFILADAG [RPP1B]
Marked response: 1.35

Exam item: Now consider SDKIPYVAPTKKEYIEL [SRB4] .
Marked response: 2.7

Exam item: What about this sequence? DQSIASGNTNGAGSAFG [YOR098C/NUP1]
Marked response: 2.49
